test system: Saccharomyces cerevisiae; assay: protein stability index of tFT-peptide fusion in deletion strain of DAS1 (PSI (0-1 scale)); higher = more stable (slower turnover);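 further: PSI is a weighted mean of each variant's read distribution over the sorted stability bins, computed only for variants having over 10 reads in total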
For each entry below, report its protein stability index value.

[[record]]
sequence_chain = "PDKSNHLIKLLN"
measured_result = 0.652


Your task in this section: give protein stability index for each listed record.
1. LKILTQKMNHQN
2. PSLSASFWRVVG
3. RLIQPLPVQSLN
4. WVVYLSCVACIN
5. FSMRWTFRYWVND
6. CTSQGYKFRTNN
7. LVKYLSCVACIN
8. LKILRQKMNHQH

Result:
0.688
0.692
0.612
0.0589
0.557
0.678
0.365
0.68
